# Test system: Cdc7 (pS40MCM2 levels in HCT116 cells)
# experimentalDetails: Cdc7 Cell Pharmacodynamics Assay Method 2A: pS40MCM2 levels in HCT116 cells, 6 hours
# Assay type: cell-based
# conditions: Homo sapiens, HCT-116, read-out: Biomarker Method 2A (pEC50) (converted)
valueKind: EC50 (nM)

# example entries with known answers
N[C@H]1CCCCN(c2nc(-c3ccnc(F)c3)[nH]c(=O)c2Cl)C1 [Compound 188] = 170
N[C@H]1CCCN(c2nc(-c3ccnc(F)c3)[nH]c(=O)c2Cl)C1 [Compound 317] = 219
O=C1CCCN(c2nc(-c3ccnc(F)c3)[nH]c(=O)c2Cl)CC1 [Compound 203] = 363
O=C1CNCCN(c2nc(-c3ccnc(F)c3)[nH]c(=O)c2Cl)C1 [Compound 412] = 339
C[C@@H]1COCCN1c1nc(-c2ccnc(F)c2)[nH]c(=O)c1Cl [Compound 328] = 3.89
C[C@H]1COCCN1c1nc(-c2ccnc(F)c2)[nH]c(=O)c1Cl [Compound 333] = 347

(1) C[C@@H]1CNCCN1c1nc(-c2ccncc2)[nH]c(=O)c1Cl [Compound 364]
(2) CC(=O)NC1CCN(c2nc(-c3ccnc(F)c3)[nH]c(=O)c2Cl)CC1 [Compound 232]
Query: Lab notebook, comparison: 1 versus 2 , higher EC50 goes to which? Answer format: the label of the selected item.
Response: 2
(2: 2000 nM, 1: 26.9 nM)

(P) N[C@H]1CCN(c2nc(-c3ccnc(F)c3)[nH]c(=O)c2Cl)C1 [Compound 320]
(Q) CC(C)(C)[C@H]1CN(c2nc(-c3ccncc3)[nH]c(=O)c2F)CCN1 [Compound 185]
Query: Returns the identifier with the smallest measured EC50 among P and Q . Please reply using the label of the selected record.
Response: Q

(1) O=c1[nH]c(-c2ccncc2)nc(N2CCN[C@H](C(F)(F)F)C2)c1Cl [Compound 139]
(2) NC1CN(c2nc(-c3ccnc(F)c3)[nH]c(=O)c2Cl)CCC1F (mixture of isomers) [Compound 252]
(3) C[C@@H]1CNCCN1c1nc(-c2ccnc(F)c2)[nH]c(=O)c1Cl [Compound 323]
(4) N[C@@H]1CCCN(c2nc(-c3ccnc(F)c3)[nH]c(=O)c2Cl)C1 [Compound 319]
(5) CN[C@H]1CCCN(c2nc(-c3ccnc(F)c3)[nH]c(=O)c2Cl)C1 [Compound 197]
Query: Arrange by EC50, high to low. Reply with the item labels sorted in the order that was asked for.
Response: 1, 5, 4, 2, 3

----------
# systemTested: Cdc7/ASK (Homo sapiens, UniProt O00311)
# Sequence (O00311 whole entry): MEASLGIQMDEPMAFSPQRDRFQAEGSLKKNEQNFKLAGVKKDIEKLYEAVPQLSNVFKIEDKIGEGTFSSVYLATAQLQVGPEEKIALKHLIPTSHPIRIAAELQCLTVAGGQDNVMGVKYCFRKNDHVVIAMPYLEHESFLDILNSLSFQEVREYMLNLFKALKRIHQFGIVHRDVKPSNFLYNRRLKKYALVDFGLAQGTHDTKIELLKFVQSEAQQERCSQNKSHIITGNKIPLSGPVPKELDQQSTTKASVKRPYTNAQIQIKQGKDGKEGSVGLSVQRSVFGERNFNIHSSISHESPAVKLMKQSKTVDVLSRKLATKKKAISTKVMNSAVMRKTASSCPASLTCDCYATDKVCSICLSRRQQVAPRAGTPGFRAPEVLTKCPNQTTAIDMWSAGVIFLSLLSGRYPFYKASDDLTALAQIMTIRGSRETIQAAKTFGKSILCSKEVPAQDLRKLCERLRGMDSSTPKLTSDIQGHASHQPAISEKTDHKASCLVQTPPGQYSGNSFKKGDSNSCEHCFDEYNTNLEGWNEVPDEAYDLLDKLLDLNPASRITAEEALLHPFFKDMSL
# Sequence (Q9UBU7 whole entry partner): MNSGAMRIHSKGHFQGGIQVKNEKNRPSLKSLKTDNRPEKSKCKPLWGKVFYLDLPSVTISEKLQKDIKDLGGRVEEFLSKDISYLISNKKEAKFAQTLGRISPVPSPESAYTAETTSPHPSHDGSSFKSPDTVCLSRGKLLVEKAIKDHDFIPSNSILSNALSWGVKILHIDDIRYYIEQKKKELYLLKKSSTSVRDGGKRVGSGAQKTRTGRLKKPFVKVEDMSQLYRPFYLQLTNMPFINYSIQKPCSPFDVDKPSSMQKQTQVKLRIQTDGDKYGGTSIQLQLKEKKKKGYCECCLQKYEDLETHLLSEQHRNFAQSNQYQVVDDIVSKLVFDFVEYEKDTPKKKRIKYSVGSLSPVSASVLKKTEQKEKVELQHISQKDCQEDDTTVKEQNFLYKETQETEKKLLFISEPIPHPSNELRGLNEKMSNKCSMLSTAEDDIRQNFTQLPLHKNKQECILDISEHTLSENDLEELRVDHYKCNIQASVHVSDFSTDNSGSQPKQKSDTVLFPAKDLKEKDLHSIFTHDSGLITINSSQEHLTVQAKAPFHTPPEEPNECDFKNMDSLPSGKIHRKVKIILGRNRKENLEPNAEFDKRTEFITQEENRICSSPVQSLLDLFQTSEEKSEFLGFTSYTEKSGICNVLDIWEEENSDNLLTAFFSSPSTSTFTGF
# experimentalDetails: Cdc7 Biochemical Assay Method 1: 384 well ELISA, whole protein substrate MCM2, antibody against Phospho MCM2 (S53)
# Parameters: purchased
# conditions: 2 μM ATP, read-out: Biochemical Method 1 (pIC50) (converted)
valueKind: IC50 (nM)

Worked cases, answers included:
O=c1[nH]c(-c2ccncc2)nc(N2CCC(C(F)(F)F)C2)c1Cl (stereo not drawn) [Compound 135] = 23.4
O=c1[nH]c(-c2ccncc2)nc(N2CCC(F)CC2)c1Cl [Compound 106] = 7.59
O=c1[nH]c(-c2ccncc2)nc(N2CCN(Cc3cccc(Cl)c3)CC2)c1Cl [Compound 80] = 123
O=c1[nH]c(-c2ccncc2)nc(N2CCOC(CCO)C2)c1Cl (stereo not drawn) [Compound 94] = 6.92
CC(C)(C)OC(=O)NCC(=O)N1CCC(c2nc(-c3ccncc3)[nH]c(=O)c2Cl)CC1 [Compound 35] = 22.9
C[C@H](NC(=O)OC(C)(C)C)C(=O)N1CCC(c2nc(-c3ccncc3)[nH]c(=O)c2Cl)CC1 [Compound 71] = 14.5

(a) O=c1[nH]c(-c2ccncc2)nc(C2CCN(S(=O)(=O)c3ccccc3)CC2)c1Cl [Compound 37]
(b) CC1CCCN(c2nc(-c3ccncc3)[nH]c(=O)c2Cl)C1 (stereo not drawn) [Compound 105]
(c) O=c1[nH]c(-c2ccncc2)nc(C2CCOCC2)c1F [Compound 5]
Query: Arrange the 3 entries by IC50 so the values rise. Please write the labels in the order that was asked for.
Response: c, b, a
(c: 6.31 nM, b: 14.1 nM, a: 30.2 nM)

----------
# systemTested: Cdc7/ASK (Homo sapiens)
# experimentalDetails: Cdc7 Biochemical Assay Method 1: 384 well ELISA, whole protein substrate MCM2, antibody against Phospho MCM2 (S53)
# Parameters: purchased
# conditions: 2 μM ATP, read-out: Biochemical Method 1 (pIC50) (converted)
# Procedure: This protocol describes a method for assaying Cdc7/ASK for activity. The assay is a 384 well ELISA assay, utilising a whole protein substrate (MCM2) and an antibody against Phospho MCM2 (S53). This site is thought to be specific to Cdc7/ASK phosphorylation and the assay has been validated using knockout mutants. […] Stop the reaction by adding 20 μL Stop Solution to all wells and record Absorbance on a Pherastar plate reader. […] Z' factors were determined for each plate tested and were all above 0.5. […]
valueKind: IC50 (nM)

Use these answered entries as a reference point.
O=c1[nH]c(-c2ccncc2)nc(N2CCN(CC3CCCCC3)CC2)c1Cl = 47.9
CC(C)CN1CCC(c2nc(-c3ccncc3)[nH]c(=O)c2Cl)CC1 = 8.32
O=CN1CCCN(c2nc(-c3ccncc3)[nH]c(=O)c2Cl)CC1 = 3.55
CC(=O)c1ccc(C(=O)N2CCC(c3nc(-c4ccncc4)[nH]c(=O)c3Cl)CC2)cc1 = 1.91
O=c1[nH]c(-c2ccnc(F)c2)nc(N2CCN[C@@H](C(F)(F)F)C2)c1Cl = 1.12

(a) O=c1[nH]c(-c2ccncc2)nc(N2CCN(CCO)CC2)c1Cl
(b) CC(C)(O)[C@@H]1CN(c2nc(-c3ccncc3)[nH]c(=O)c2Cl)CCN1
(c) O=c1[nH]c(-c2ccnc(F)c2)nc(C2CCOCC2)c1Cl
(d) CC(=O)N1CCN(c2nc(-c3ccncc3)[nH]c(=O)c2Cl)C[C@@H]1C
(e) CC(C)(C)[C@H]1CN(c2nc(-c3ccncc3)[nH]c(=O)c2F)CCN1
Query: Ordering: ascending IC50. As an answer, provide the labels arranged in the order called for.
Response: e, c, d, a, b

(A) O=c1[nH]c(-c2ccncc2)nc(N2CCN(CC3CCCC3)CC2)c1Cl
(B) O=c1[nH]c(-c2ccncc2)nc(C2CCOCC2)c1C(F)(F)F
Query: Determine, for A and B , which has the greater value of IC50. Identify your pick by its label.
Response: B
(B: 851 nM, A: 23.4 nM)

(I) CC(C)CCN1CCN(c2nc(-c3ccncc3)[nH]c(=O)c2Cl)CC1
(II) CS(=O)(=O)Cc1ccc(C(=O)N2CCC(c3nc(-c4ccncc4)[nH]c(=O)c3Cl)CC2)cc1
(III) CC(C)(C)OC(=O)N1CCC(c2nc(-c3ccncc3)[nH]c(=O)c2Cl)CC1
(IV) CC(C)NC(=O)N1CCC(c2nc(-c3ccncc3)[nH]c(=O)c2Cl)CC1
Query: Arrange these 4 compounds in increasing order of IC50. Please reply with the labels ordered as requested. Many thanks.
Response: II, IV, III, I
(II: 5.13 nM, IV: 25.7 nM, III: 70.8 nM, I: 166 nM)

----------
# System: Cdc7 (pS53MCM2 levels in HCT116 cells)
# experimentalDetails: Cdc7 Cell Pharmacodynamics Assay Method 1: pS53MCM2 levels in HCT116 cells, 6 hours
# Type: cell-based
# conditions: Homo sapiens, HCT-116, 6 h, read-out: Biomarker Method 1 (pEC50) (converted)
valueKind: EC50 (nM)

Some compounds with known EC50 results, for comparison:
O=c1[nH]c(-c2ccncc2)nc(N2CC3C(C2)C3(F)F)c1Cl (stereo not drawn) = 692
CC1CN(c2nc(-c3ccncc3)[nH]c(=O)c2Cl)CCN1C (stereo not drawn) = 191
COc1ccc(C2CN(c3nc(-c4ccncc4)[nH]c(=O)c3Cl)CCN2)cc1 (stereo not drawn) = 562

(I) CCN1CCN(c2nc(-c3ccncc3)[nH]c(=O)c2Cl)CC1
(II) C[C@H]1CN(c2nc(-c3ccncc3)[nH]c(=O)c2Cl)CCN1C(=O)C(F)(F)F
Query: Lower value for measured EC50? Options: I , II Label of pick, please.
Response: II
(II: 93.3 nM, I: 398 nM)

(A) O=c1[nH]c(-c2ccncc2)nc(N2CCC(F)(F)CC2)c1Cl
(B) C[C@@H]1CN(c2nc(-c3ccncc3)[nH]c(=O)c2Cl)[C@H](C)CN1
Query: Lab note: record which item had the higher EC50, A or B . Please indicate the selected item by its label.
Response: B
(B: 2820 nM, A: 224 nM)

(P) O=c1[nH]c(-c2ccncc2)nc(N2CCN[C@@H](C(F)(F)F)C2)c1Cl
(Q) CC1(C)CN(c2nc(-c3ccncc3)[nH]c(=O)c2Cl)CCO1
Query: When P and Q are compared, which has the higher number for EC50? # reply format: chosen label
Response: Q

Taken from patent US10919896B2.
